human adenosine A2a receptor (Homo sapiens (Human)): recorded pIC50 for assorted compounds
Sequence (P29274 whole entry): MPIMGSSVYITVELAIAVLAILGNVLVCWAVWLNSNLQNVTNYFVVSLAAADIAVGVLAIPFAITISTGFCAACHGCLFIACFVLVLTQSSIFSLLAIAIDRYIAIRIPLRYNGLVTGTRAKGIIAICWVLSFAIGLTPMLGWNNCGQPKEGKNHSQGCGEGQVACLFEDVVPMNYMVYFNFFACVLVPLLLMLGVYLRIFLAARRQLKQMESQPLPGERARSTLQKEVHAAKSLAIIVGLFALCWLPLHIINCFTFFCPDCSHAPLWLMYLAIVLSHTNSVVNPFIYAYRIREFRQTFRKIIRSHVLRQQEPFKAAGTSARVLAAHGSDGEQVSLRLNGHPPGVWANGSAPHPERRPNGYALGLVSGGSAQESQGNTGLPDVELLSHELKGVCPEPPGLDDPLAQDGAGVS
pIC50: −log10 of the molar value.
Measurement Type: pIC50

A selection of reference data follows.
Ask | Requested read-out: pIC50. Entry: CCCCN1CCN(C(=O)[C@H](COC)Nc2nc(N)n3nc(-c4ccco4)nc3n2)CC1
Reply | 7.96

Ask | Look up pIC50: Nc1nc(N2CCC[C@H]2C(=O)N2CCN(CC(F)F)CC2)nc2nc(-c3ccco3)nn12
Reply | 8.15

Ask | # pIC50 lookup, item CC(C)(F)CN1CCN(C(=O)[C@H]2CCCN2c2nc(N)n3nc(-c4ccco4)nc3n2)CC1
Reply | 5.42

Ask | Using the record for CC(C)[C@H](Nc1nc(N)n2nc(-c3ccco3)nc2n1)C(=O)N1CCN(c2ccc(F)cc2F)CC1 , report its pIC50.
Reply | 9.45

Ask | So what does the record say about pIC50 for Cn1cnc(C(=O)N2CCN(C(=O)[C@@H]3CCCN3c3nc(N)n4nc(-c5ccco5)nc4n3)CC2)c1 ?
Reply | 8.00

a: Nc1nc(N2CCC[C@H]2C(=O)N2CCC(C(=O)NCc3ccccc3)CC2)nc2nc(-c3ccco3)nn12
b: Nc1nc(N2CCC[C@H]2C(=O)N2CCN(Cc3ccc(F)cc3)CC2)nc2nc(-c3ccco3)nn12
Ask | Lab note: check whether a or b has the lower measured pIC50. Mark your selection by writing its label.
Reply | b
(b: 7.72, a: 8.10)
